- Target of assay: Delta-type opioid receptor (Homo sapiens, UniProt P41143)
- Sequence (P41143 whole entry): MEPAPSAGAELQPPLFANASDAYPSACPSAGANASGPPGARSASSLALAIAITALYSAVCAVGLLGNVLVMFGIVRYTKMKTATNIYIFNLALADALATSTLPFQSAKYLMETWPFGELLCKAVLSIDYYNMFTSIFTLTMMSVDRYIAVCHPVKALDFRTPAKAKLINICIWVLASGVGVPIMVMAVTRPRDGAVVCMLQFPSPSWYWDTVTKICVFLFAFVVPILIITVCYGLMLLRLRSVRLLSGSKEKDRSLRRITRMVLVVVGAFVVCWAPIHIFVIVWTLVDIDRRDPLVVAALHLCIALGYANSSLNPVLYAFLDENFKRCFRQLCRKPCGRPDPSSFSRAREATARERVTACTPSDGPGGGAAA
- Measurement notes: Activity against [35S]GTP-gamma-S binding to human delta opioid receptor expressed in HN9.10 cells
- Format: functional, cell-based
I'd be grateful if you could share measured Emax for these entries.
Give just the number in %; leave the unit off.

Q: Bench note: what Emax did `CCCC[C@@H](C(=O)N[C@@H](CC(=O)O)C(=O)N[C@@H](Cc1ccccc1)C(N)=O)N(C)C(=O)[C@@H](Cc1c[nH]c2ccccc12)NC(=O)CNC(=O)[C@@H](C)NC(=O)[C@@H](N)Cc1ccc(O)cc1` show?
Ans: 56

Q: Looking for the measured Emax of `CCCC[C@@H](C(=O)N[C@@H](CC(=O)O)C(=O)N[C@@H](Cc1ccccc1)C(N)=O)N(C)C(=O)[C@H](Cc1c[nH]c2ccccc12)NC(=O)CNC(=O)[C@@H](Cc1ccccc1)NC(=O)[C@H](Cc1ccc(O)cc1)NC(=O)[C@@H](N)CC(=O)O` , can you help?
Ans: 80
